A collection of sequences and their measured PBM binding z-score
Test system: PPARg:RXRa IVT, anti-PPARg (NR concentration 270 nM, RXRa partner concentration 90 nM)
Measurement notes: PBM binding z-score (relative to random genomic background probes); higher = stronger binding; sequences stand for … in GC…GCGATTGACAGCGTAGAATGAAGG
Respond numerically, and do not add a unit to the figure.

Would you please look over these solved cases?
{"columns": ["Sequence", "PBM binding z-score"],
 "data": [
  ["CCGACTGGGGCAGTAAGGTTACCATACCATCCGG", 2.69],
  ["CCTAGCAGGCCAGGGTCACTCCAGCATTTCGCTT", 1.18],
  ["CCGAGTAGGTTATAGGGCATTCAGGCAACGGTGA", 4.27],
  ["TCATATTGGTAAACAGGTGAAAGTCCGTAAGTTA", 1.5],
  ["ATCACTAGGTAACCAAGTTCAGTGAATGCCGAAC", 4.16],
  ["TCGAGTAGCTTAGTCGGGGCATTCAGCCAACATA", -0.763],
  ["TCTAGTTGGTCAAACGTCACACACTCGAAATGCG", 2.32],
  ["CAAACTAGGTGACGAAAGGTCAAAGTCGAATGAC", 7.93],
  ["TGTAGCAGGCCAGAGGGTCACTCAAGAGGTACGG", 1.1],
  ["CCTAGCAGGCCAATCTGGGTCACTAAAGGCTTGA", 4.94]
]}

Entry `TAGCCTAGGTCATTGGGCCAGAATAGTACGCATC` , PBM binding z-score reported as 3.68

Entry `TTACCAAGGAGAGCTGAGGTCGTTGATCCAACTC` , PBM binding z-score reported as -0.449

Entry `AGAATGAGGTTAAGACCAGGGAAACAGAATACAT` , PBM binding z-score reported as 2.42

Entry `TAGCCTTGGTCAGATCGGGCCAGTATACGCTATA` , PBM binding z-score reported as -0.297

Entry `CGAACTAGGTCCTCCAGGACAGTGAATACATTGA` , PBM binding z-score reported as 2.42

Entry `CGTCAAAGTTCAACAAAGGTAACGTAAAGCACGC` , PBM binding z-score reported as 2.37

Entry `CAAACTAGGTCACCGCAAGGTCAAAGTCCGCATG` , PBM binding z-score reported as 8.87

Entry `GCTGCTAGGTCAGGTTGGTCATCTAACGGGTACG` , PBM binding z-score reported as 2.41

Entry `GCGACTGGGGGAAAGCAGGTTACCATAAGGTTGG` , PBM binding z-score reported as 3.37

Entry `TCGAGTAGGTTAATCGGGGCATTCAGCCAACATA` , PBM binding z-score reported as 3.08

---

Tested on: RXRa homodimer (NR concentration 180 nM)
Measurement notes: PBM binding z-score (relative to random genomic background probes); higher = stronger binding; sequences stand for … in GC…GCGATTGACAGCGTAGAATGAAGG
The class of a record is decided solely by its measured PBM binding z-score; consult bin 1: < 0.5; bin 2: ≥ 0.5 and < 2; bin 3: ≥ 2

Previously resolved entries follow.
{"columns": ["Sequence", "Study system", "Category label"],
 "data": [
  ["CCTGCTAGATCAATGGTCAGCTAAAGCAGCTCGC", "RXRa homodimer (NR concentration 180 nM)", "bin 1"],
  ["CCTCGGTGGACAACAGGAGGTCAGAGCTGCCAGA", "RXRa homodimer (NR concentration 180 nM)", "bin 2"],
  ["CAAACTAGGTCACCGGATGGTCAAAGTCCGCATG", "RXRa homodimer (NR concentration 180 nM)", "bin 3"],
  ["CCGACTGGGACAAAGGTTACCATACTCAGTACGA", "RXRa homodimer (NR concentration 180 nM)", "bin 3"],
  ["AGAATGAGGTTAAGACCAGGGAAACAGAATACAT", "RXRa homodimer (NR concentration 180 nM)", "bin 3"],
  ["TCCAGCAGGCCAGAGGGTCACTCAAGAGGTACGG", "RXRa homodimer (NR concentration 180 nM)", "bin 3"]
]}

Pick a category. Item: `GCTGCTAAGTCAACTGATGGTCAGCTAAAGCTCG`
bin 1

Pick a category. Item: `ATACCAAGGTGCTCGTGAGGTCGTTGATACTAAC`
bin 2

Pick a category. Item: `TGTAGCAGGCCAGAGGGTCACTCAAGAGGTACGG`
bin 3

Pick a category. Item: `AGAACGAGGGCAATGAGTTGACAGCACGGGTGGC`
bin 2

Pick a category. Item: `AGAACGAGGGCGCGCTGAGTTGATAGCAGAGTAG`
bin 1
